Biological target: MMP-10h (Homo sapiens (Human), UniProt P09238)
Sequence (P09238 99-476): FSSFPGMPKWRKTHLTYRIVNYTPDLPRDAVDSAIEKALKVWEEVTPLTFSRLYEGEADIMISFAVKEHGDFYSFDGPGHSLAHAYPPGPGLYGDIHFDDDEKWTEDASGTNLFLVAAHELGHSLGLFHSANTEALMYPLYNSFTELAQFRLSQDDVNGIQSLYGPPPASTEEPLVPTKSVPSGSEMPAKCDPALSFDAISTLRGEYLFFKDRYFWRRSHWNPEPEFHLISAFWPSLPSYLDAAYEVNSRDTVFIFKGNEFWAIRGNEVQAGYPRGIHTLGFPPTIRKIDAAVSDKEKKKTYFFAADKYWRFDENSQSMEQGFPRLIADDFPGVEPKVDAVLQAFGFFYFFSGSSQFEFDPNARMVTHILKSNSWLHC
Experiment: Inhibition constant (Ki) on MMP-10h
Type: biochemical
Conditions: read-out: Ki MMP-10h; human MMP-10
pKi: −log10 of the molar value.
Note to self: values exactly at 7 are T. So pKi at or above 7 is T, below is F.

| MOLECULE | CLASS_ASSIGNMENT |
| --- | --- |
| CC(C)C[C@H](NC(=O)CCc1ccc(-c2ccc(-c3ccccc3)cc2)cc1)C(=O)N[C@@H](CCC(=O)O)C(N)=O | F |
| NCCCC[C@H](NC(=O)CCc1ccc(-c2ccc(-c3ccccc3)cc2)cc1)C(=O)N[C@@H](CCC(=O)O)C(N)=O | F |
| NC(=O)[C@H](CCC(=O)O)NC(=O)[C@H](CCC(=O)O)NC(=O)CCc1ccc(C#Cc2ccccc2)cc1 | F |
| NC(=O)CC[C@H](NC(=O)[C@H](CCC(N)=O)NC(=O)CCc1cc(-c2ccc(-c3ccccc3)cc2)no1)C(N)=O | F |
| NC(=O)[C@H](CCC(=O)O)NC(=O)[C@H](CCC(=O)O)NC(=O)CCc1ccc(-c2cccs2)cc1 | F |
| NC(=O)[C@@H](CCC(=O)O)NC(=O)[C@H](CCC(=O)O)NC(=O)CCc1cc(-c2ccc(-c3cccc(Cl)c3)cc2)no1 | T |
| NC(=O)[C@H](CCC(=O)O)NC(=O)[C@H](CCC(=O)O)NC(=O)CCc1noc(-c2ccccc2)n1 | F |
| NC(=O)[C@H](CCC(=O)O)NC(=O)[C@H](CCC(=O)O)NC(=O)[C@H](Cc1cc(-c2ccc(-c3cccc(Cl)c3)cc2)no1)CP(=O)(O)c1ccc(Br)cc1 [RXP470, reference compound] | T |
| NC(=O)[C@H](CC(=O)O)NC(=O)[C@H](CCC(=O)O)NC(=O)CCc1cc(-c2ccc(-c3cccc(Cl)c3)cc2)no1 | T |
| C[C@H](NC(=O)[C@H](CCC(=O)O)NC(=O)CCc1cc(-c2ccc(-c3ccccc3)cc2)no1)C(N)=O | F |
| NC(=O)[C@H](CCC(=O)O)NC(=O)[C@H](CCC(=O)O)NC(=O)CCc1cc(-c2ccccc2)on1 | F |

====

Listed below: pKi values for each entry.
Molecular target: MMP-14h (Homo sapiens (Human), UniProt P50281)
Test: Inhibition constant (Ki) on MMP-14h
Format: biochemical
Conditions: read-out: Ki MMP-14h; human MMP-14
pKi: −log10 of the molar value.

| SMILES_ENTRY | pKi |
| --- | --- |
| NC(=O)[C@H](CCC(=O)O)NC(=O)[C@H](CCC(=O)O)NC(=O)CCc1ccc(-c2ccc(-c3ccccc3)s2)cc1 | < 6.00 |
| NC(=O)[C@H](CCCC(=O)O)NC(=O)[C@H](CCC(=O)O)NC(=O)CCc1ccc(-c2cc(-c3ccccc3)cs2)cc1 | < 6.00 |
| NC(=O)[C@H](Cc1ccc(O)cc1)NC(=O)[C@H](CCC(=O)O)NC(=O)CCc1ccc(-c2ccc(-c3ccccc3)cc2)cc1 | < 6.00 |
| O=C(O)CC[C@H](NC(=O)CCc1ccc(-c2ccc(-c3ccccc3)cc2)cc1)C(=O)Nc1cccc(CC(=O)O)c1 | 6.16 |
| CC(C)C[C@H](NC(=O)CCc1ccc(-c2ccc(-c3ccccc3)cc2)cc1)C(=O)N[C@@H](CCC(=O)O)C(N)=O | < 5.00 |
| NC(=O)[C@H](Cc1c[nH]cn1)NC(=O)[C@H](CCC(=O)O)NC(=O)CCc1ccc(-c2cccs2)cc1 | < 6.00 |
